TGI values for the molecules below.
test system: ACHN renal; test: NCI tumour cell line growth inhibition, 48 h

Check out these entries, answers already filled in.
molecule: CC(C)(C)OC(=O)[N+](=N)C(=O)C1CCC(=O)N1C(=O)OCc1ccccc1 (stereo unspecified)
system: ACHN renal
TGI: > 100 µM
--
molecule: CC(=O)OCC1OC(On2ccccc2=S)C(OC(C)=O)C(OC(C)=O)C1OC(C)=O (stereo unspecified)
system: ACHN renal
TGI: > 100 µM
--
molecule: C/C(=N\N=C(N)N)C(CN(CC(C)C)CC(C)C)C(=O)Nc1ccc(C)cc1C (stereo unspecified)
system: ACHN renal
TGI: > 100 µM
--
molecule: CC/C=C\C[C@H](O)C/C=C1/C(=O)C=C[C@@H]1C/C=C\CCCC(=O)NC(C)C
system: ACHN renal
TGI: 3.49 µM
--
molecule: Cn1cc(C(=O)c2nccc3c2cnc2ccccc23)ccc1=O
system: ACHN renal
TGI: > 100 µM
--
molecule: CCN(CC)CCn1c(C(C)(C)C)nc2ccccc21
system: ACHN renal
TGI: > 100 µM
--
molecule: CC1=C(C)C(=O)c2c(c(C(=O)c3ccccc3)c3nc4ccccc4n3c2C)C1=O
system: ACHN renal
TGI: > 100 µM
--
molecule: CN1C2CCC1CC(OC(c1ccccc1)c1ccccc1)C2 (stereo unspecified)
system: ACHN renal
TGI: 59.2 µM

Entry O=C(c1ccccc1)c1ccc(C(c2c(O)c3ccccc3oc2=O)c2c(O)c3ccccc3oc2=O)cc1 ; assay system ACHN renal; TGI recorded at 48.6 µM

Entry CCn1c(=O)c(-c2ccn[nH]2)cc2c(C)nc(N)nc21 ; assay system ACHN renal; TGI recorded at > 100 µM

Entry CN/N=C(/Cc1occc(=O)c1O)C(=O)Nc1ccc(C)c(C)c1 ; assay system ACHN renal; TGI recorded at > 100 µM

---

system: LOX IMVI melanoma; experiment: NCI tumour cell line growth inhibition, 48 h
TGI values for the compounds below.

Check out these entries, answers already filled in.
compound: Cc1ccc(Nc2nc(=S)[nH]c3[nH]ncc23)cc1
system: LOX IMVI melanoma
TGI: > 100 µM

compound: CC(C)(C)[OH+][O-].[O-]c1ccc(Cl)cc1C=Nc1ccc(Cl)cc1[O-].[O]=[V]
system: LOX IMVI melanoma
TGI: 25.9 µM

compound: O=P(c1ccccc1)(c1ccccc1)C1CC=C(c2ccccc2)C2(CCCC2)C1 (centres undefined)
system: LOX IMVI melanoma
TGI: > 100 µM

compound: O=C(Nc1ccc(Cl)c([N+](=O)[O-])c1)Nc1nc2ccccc2s1
system: LOX IMVI melanoma
TGI: 21 µM

compound: CC[C@@H]1C[C@@H]2CN3CCc4c([nH]c5ccc(OC)cc45)C(COC(=O)c4ccc(OC)c(OC)c4)(C2)C13
system: LOX IMVI melanoma
TGI: 27.6 µM

TGI reading for Oc1ccc(C(c2ccccc2)(c2ccccc2)c2ccccc2)cc1 : > 100 µM

TGI reading for O=C(O)c1ccc(NC(=O)C2C(=O)C(=O)N(c3ccc(C(=O)O)cc3)C2=O)cc1 (centres undefined) : > 100 µM

TGI reading for CCOC(=O)/C(C#N)=C/c1ccc2c(-c3c(OCC)ccc4cc(/C=C(\C#N)C(=O)OCC)ccc34)c(OCC)ccc2c1 : > 100 µM

TGI reading for CSc1ccc2c(cc1=O)[C@@H](NC(C)=O)CCc1cc(O)c(O)c(O)c1-2 : > 100 µM

---

system: CAKI-1 renal; test: NCI tumour cell line growth inhibition, 48 h; in the data active = GI50 below about 0.43 µM; inactive = the rest
Please reply with one of these outcomes: yes (1) = active, no (0) = inactive

smi: O=C1/C(=C/c2cccc([N+](=O)[O-])c2)COc2ccc(O)c(O)c21
discrete-label: no (0)

Short answer needed: outcome of this test for CNc1ccccc1C(=O)N/N=C/C=C/c1ccccc1 ?
no (0)

Short answer needed: outcome of this test for O=C(Nc1ccc(Cl)c([N+](=O)[O-])c1)Nc1nc2ccccc2s1 ?
no (0)

Short answer needed: outcome of this test for Cn1c(C(N)=O)cc2c1-c1nc(Nc3ccccc3)ncc1CCC2 ?
no (0)

Short answer needed: outcome of this test for Nc1ccccc1C#CC#Cc1ccccc1N ?
no (0)

Short answer needed: outcome of this test for CC(C)C[C@H](NC(=O)[C@H](Cc1ccccc1)n1ccc(N2CCCCC2)cc1=O)B(O)O ?
no (0)

Short answer needed: outcome of this test for CS(=O)(=O)c1ccc(Oc2cc(F)cc(C#N)c2)c2c1[C@H](O)[C@H](F)[C@@H]2F ?
no (0)

Short answer needed: outcome of this test for O=C(Nc1ccc(-c2nc3cc4ccccc4cc3[nH]2)cc1)c1cccc(Br)c1 ?
no (0)

Short answer needed: outcome of this test for O=C(/C=C/c1ccco1)c1ccc(Nc2nc(Nc3ccc(F)cc3)nc(Nc3ccc(Cl)cc3)n2)cc1 ?
no (0)

Short answer needed: outcome of this test for CCC/C(=N\NC(=S)N1CCN(c2ccccn2)CC1)c1ccccn1 ?
yes (1)

Short answer needed: outcome of this test for COc1ccc(C(=O)Cn2c(C(=O)c3ccc(Cl)cc3)nc3ccccc32)cc1 ?
no (0)

Short answer needed: outcome of this test for CN(C)CCNC(=O)c1ccc(Nc2nc3ccccc3c3occc23)cc1 ?
no (0)

---

test system: T-47D breast; assay: NCI tumour cell line growth inhibition, 48 h
measurement-kind: GI50

Check out these entries, answers already filled in.
molecule: CCNC(=O)C[C@@H]1N=C(c2ccc(Cl)cc2)c2cc(OC)ccc2-n2c(C)nnc21
GI50: 2.9 µM
//
molecule: O=C1/C(=C/c2cccc([N+](=O)[O-])c2)COc2ccc(O)c(O)c21
GI50: 1.17 µM
//
molecule: O=[N+]([O-])c1cnc(Sc2ccncn2)c([N+](=O)[O-])c1
GI50: 1.78 µM
//
molecule: COc1cccc(-c2nn(-c3ccccc3)cc2-c2ccnc(NCCNS(=O)(=O)c3ccc(Cl)cc3)c2)c1
GI50: 2.52 µM
//
molecule: CCC1=C(C)/C(=C/c2[nH]c(C)c(C(=O)CCCCC(=O)OC)c2C)N=C1c1ccc[nH]1
GI50: 3.45 µM

GI50 reading for COc1ccc(-c2ccc(C3CC(c4ccc(O)cc4)=NN3)o2)c([N+](=O)[O-])c1 (stereo not drawn) : 75 µM

GI50 reading for CC/C=C\C[C@H](O)C/C=C1/C(=O)C=C[C@@H]1C/C=C\CCCC(=O)NC(C)C : 4.19 µM

GI50 reading for Cn1ccnc1C(=O)/C=C/c1ccc(CC(=O)Nc2ccc(Cl)cc2)cc1 : 4.3 µM

---

system: HT29 colon; assay: NCI tumour cell line growth inhibition, 48 h
TGI values for the compounds below.

compound: COc1ccc(-c2ccc(C3CC(c4ccc(O)cc4)=NN3)o2)c([N+](=O)[O-])c1 (centres undefined)
result: 97.6 µM
//
compound: CC(=O)N1CCC2(C=Nc3ccccc32)CC1
result: > 100 µM

TGI reading for CC(=O)ON(OC(C)=O)c1ccc(C)cc1 : > 100 µM

TGI reading for O=S(=O)([O-])[O-].[OH3+].[OH3+].[OH3+].[Ru+2].c1ccccc1 : > 100 µM

---

system: PC-3 prostate; test: NCI tumour cell line growth inhibition, 48 h; in the data active = GI50 below about 0.43 µM; inactive = the rest
Please reply with one of these outcomes: active, inactive

Field: example entries. Status: answers known.
smi: Nc1c(C(=O)Nc2ccccc2)sc2nc3c(cc12)CCCCCC3
discrete-label: inactive

smi: CCn1c(=O)c(-c2ccn[nH]2)cc2c(C)nc(N)nc21
discrete-label: active

smi: Oc1ccc2ccccc2c1C=NCCCN=Cc1c(O)ccc2ccccc12
discrete-label: inactive

smi: CN1CCN(Cc2ccc(-c3cc4ncnc(Nc5ccc(OCc6cccc(F)c6)c(Cl)c5)c4s3)o2)CC1
discrete-label: inactive

smi: OCCN(CCO)N=Nc1ccc(-c2nc3ccccc3[nH]2)cc1
discrete-label: inactive

Next compound, please.
Short answer needed: outcome of this test for Cn1ccnc1C(=O)/C=C/c1ccc(CC(=O)Nc2ccc(Cl)cc2)cc1 ?
inactive

---

system: UACC-62 melanoma; experiment: NCI tumour cell line growth inhibition, 48 h
Where a SMILES comes first, the peptide text is derived from it.
measurement-kind: TGI

Check out these entries, answers already filled in.
compound: Clc1ccc(N=C/C=C/Nc2ccc(Cl)cn2)nc1
TGI: 26.2 µM
//
compound: CCOC(=O)CC(=O)NC1CC2CCC1(C)C2(C)C (stereo not given)
TGI: > 100 µM
//
compound: O=C(OCCN=C1c2ccccc2CCc2ccccc21)c1cc([N+](=O)[O-])cc([N+](=O)[O-])c1
TGI: > 31.6 µM
//
compound: CCN(CC)CCn1c(C(C)(C)C)nc2ccccc21
TGI: > 100 µM

Proceed to the following item.
TGI reading for CC1NC(=O)CNC(=O)CNC(=O)C(Cc2ccc(O)cc2)NC(=O)C(C(C)C)NC(=O)C(C)NC1=O (stereo not given) (cyclo(GGAAVY); configuration not given here) : > 100 µM
